- experimental.system: Angiotensin-converting enzyme (Homo sapiens)
- Sequence (P12821 whole entry, the tested form may be a part): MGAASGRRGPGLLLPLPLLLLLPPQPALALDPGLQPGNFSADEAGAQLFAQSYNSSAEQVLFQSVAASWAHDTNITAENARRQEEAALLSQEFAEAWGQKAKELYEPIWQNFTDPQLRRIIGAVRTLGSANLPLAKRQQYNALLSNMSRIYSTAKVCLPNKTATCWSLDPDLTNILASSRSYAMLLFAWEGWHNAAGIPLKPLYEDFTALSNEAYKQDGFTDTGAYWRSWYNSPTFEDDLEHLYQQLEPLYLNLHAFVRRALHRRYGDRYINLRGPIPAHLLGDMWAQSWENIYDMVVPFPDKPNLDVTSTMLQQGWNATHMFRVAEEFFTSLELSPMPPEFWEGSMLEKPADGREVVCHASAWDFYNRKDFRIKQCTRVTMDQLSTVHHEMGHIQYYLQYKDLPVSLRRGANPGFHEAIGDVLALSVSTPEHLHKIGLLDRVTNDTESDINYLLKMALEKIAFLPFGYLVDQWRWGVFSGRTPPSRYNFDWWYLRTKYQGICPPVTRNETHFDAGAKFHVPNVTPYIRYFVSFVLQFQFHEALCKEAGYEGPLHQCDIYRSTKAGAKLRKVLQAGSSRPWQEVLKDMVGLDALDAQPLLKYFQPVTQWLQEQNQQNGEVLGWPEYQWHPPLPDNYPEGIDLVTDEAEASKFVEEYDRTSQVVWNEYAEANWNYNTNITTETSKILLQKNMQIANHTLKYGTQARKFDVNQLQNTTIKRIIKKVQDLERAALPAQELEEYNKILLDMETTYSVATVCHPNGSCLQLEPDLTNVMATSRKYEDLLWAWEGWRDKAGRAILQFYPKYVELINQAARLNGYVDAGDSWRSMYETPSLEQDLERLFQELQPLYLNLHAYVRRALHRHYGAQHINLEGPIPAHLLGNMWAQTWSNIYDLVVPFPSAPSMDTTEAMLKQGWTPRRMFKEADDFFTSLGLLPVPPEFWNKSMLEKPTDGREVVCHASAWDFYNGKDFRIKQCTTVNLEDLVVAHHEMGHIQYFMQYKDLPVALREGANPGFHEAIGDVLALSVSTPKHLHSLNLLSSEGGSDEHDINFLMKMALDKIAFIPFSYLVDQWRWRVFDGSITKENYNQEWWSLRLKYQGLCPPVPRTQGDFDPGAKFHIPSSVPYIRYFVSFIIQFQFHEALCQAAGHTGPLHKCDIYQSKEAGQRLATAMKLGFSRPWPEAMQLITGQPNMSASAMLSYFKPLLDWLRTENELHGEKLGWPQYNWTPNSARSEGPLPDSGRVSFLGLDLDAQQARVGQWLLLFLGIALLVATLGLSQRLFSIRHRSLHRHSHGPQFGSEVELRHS
- test.summary: Inhibition of human fully glycosylated ACE C-terminal domain expressed in CHO cells using Cbz-Phe-His-Leu as substrate preincubated for 15 mins followed by substrate addition measured after 10 mins by fluorescence spectrophotometric analysis
pIC50: −log10 of the molar value.
property.measured: pIC50

- smiles.entry: "O=C(N[C@H]1CCS[C@H]2CCC[C@@H](C(=O)O)N2C1=O)[C@H](Cc1ccccc1)SS[C@@H](Cc1ccccc1)C(=O)N[C@H]1CCS[C@H]2CCC[C@@H](C(=O)O)N2C1=O"
  recorded.number: 5.55

====

- experimental.system: Angiotensin-converting enzyme (Homo sapiens)
- test.summary: Inhibition of human fully glycosylated ACE N-terminal domain expressed in CHO cells using MCA-RPPGFSAFK(Dnp)-OH as substrate preincubated for 15 mins followed by substrate addition measured after 10 mins by fluorescence spectrophotometric analysis
property.measured: IC50

- smiles.entry: "O=C(N[C@H]1CCS[C@H]2CCC[C@@H](C(=O)O)N2C1=O)[C@H](Cc1ccccc1)SS[C@@H](Cc1ccccc1)C(=O)N[C@H]1CCS[C@H]2CCC[C@@H](C(=O)O)N2C1=O"
  result: "2.1 µM"
